Assay: Kinetic solubility of the compound in water after 30 mins by nephelometric analysis
Type: physicochemical
Conditions: read-out: Kinetic_solubility

COMPOUND	solubility kinetic at 0.5 h
[O-][S+]1CCN(CCCOc2ccc([C@H]3CC[C@]4(CC3)OOC3(O4)C4CC5CC(C4)CC3C5)cc2)CC1 (stereo partly drawn)	< 1.6 µg/mL
CC(C)(N)CNC(=O)C[C@H]1CC[C@]2(CC1)OOC1(O2)C2CC3CC(C2)CC1C3 (stereo partly drawn)	> 100 µg/mL
CC(C)(CN)Oc1ccc([C@H]2CC[C@]3(CC2)OOC2(O3)C3CC4CC(C3)CC2C4)cc1 (stereo partly drawn)	> 100 µg/mL
c1cc([C@H]2CC[C@]3(CC2)OOC2(O3)C3CC4CC(C3)CC2C4)ccc1OCCC1CCNCC1 (stereo partly drawn)	> 100 µg/mL
FC1(F)C2CC3CC1CC(C2)C31OO[C@]2(CC[C@@H](c3ccc(OCCN4CCOCC4)cc3)CC2)O1 (stereo partly drawn)	1.6 to 3.1 µg/mL
CC(C)(O)CN1CCC(Oc2ccc([C@H]3CC[C@]4(CC3)OOC3(O4)C4CC5CC(C4)CC3C5)cc2)CC1 (stereo partly drawn)	1.6 to 3.1 µg/mL
CC(C)(N)CCOc1ccc([C@H]2CC[C@]3(CC2)OOC2(O3)C3CC4CC(C3)CC2C4)cc1 (stereo partly drawn)	50 to 100 µg/mL
CS(=O)(=O)N1CCN(CCCOc2ccc([C@H]3CC[C@]4(CC3)OOC3(O4)C4CC5CC(C4)CC3C5)cc2)CC1 (stereo partly drawn)	< 1.6 µg/mL

###

Experiment: AUC (0 to infinity) in FVB mouse at 30 mg/kg, administered through oral gavage as single dose by LC-MS analysis
Type: ADME, organism-based
Parameters: dose 30 mg/kg, time infinity, route oral
Settings: in vivo

COMPOUND	AUC(0-inf) / µM·h
c1cc([C@H]2CC[C@]3(CC2)OOC2(O3)C3CC4CC(C3)CC2C4)ccc1OCC1CCNCC1 (stereo partly drawn)	8.9
N[C@H]1CC[C@@H](Oc2ccc([C@H]3CC[C@]4(CC3)OOC3(O4)C4CC5CC(C4)CC3C5)cc2)CC1 (stereo partly drawn)	29.5
c1cc([C@H]2CC[C@]3(CC2)OOC2(O3)C3CC4CC(C3)CC2C4)ccc1OC1CCNCC1 (stereo partly drawn)	16.4

Data provenance: ChEMBL document CHEMBL4007393
